biological target: T1, ROR1 extracellular segment sequence (including transmembrane) on CHO cells (human, UniProt Q01973 30-472); experiment: FACS, ROR1 transferred onto CHO cell surface (summing up of Example 9)
T1 construct: Cloned into pCDNA3.1 and transfected into CHO cells; also called CHO-ROR1 (extracellular segment); CHO-ROR1
T1 sequence (Q01973 30-472 limits assumed): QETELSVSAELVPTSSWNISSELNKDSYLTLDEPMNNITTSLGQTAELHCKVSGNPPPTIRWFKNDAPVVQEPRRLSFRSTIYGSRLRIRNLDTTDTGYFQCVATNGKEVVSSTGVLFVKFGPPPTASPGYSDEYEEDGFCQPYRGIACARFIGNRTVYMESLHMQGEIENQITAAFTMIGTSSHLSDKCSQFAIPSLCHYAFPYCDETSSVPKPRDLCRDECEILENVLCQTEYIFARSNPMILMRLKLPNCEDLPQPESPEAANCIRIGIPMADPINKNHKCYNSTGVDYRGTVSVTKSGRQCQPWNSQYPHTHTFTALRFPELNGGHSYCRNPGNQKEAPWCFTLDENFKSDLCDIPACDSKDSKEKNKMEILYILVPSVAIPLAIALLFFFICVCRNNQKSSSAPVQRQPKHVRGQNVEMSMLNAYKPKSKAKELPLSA
pEC50: −log10 of the molar value.
property-label: pEC50

Below: 2 binders and their reported pEC50.
mAb003c (antibody, V domains shown, Human-mouse chimeric) VH: EVQLVESGGGLVKPGGSLKLSCAASGFTFSSYAMSWVRQTPEKRLEWVATISDGGSYTYYPDSVKGRFTISRDNAKNNLYLQMSHLKSEDTDMYYCVRGGYYYNLYAMDYWGQGTSVTVSS VL: DIVLTQSPASLAVSLGQRAIISCKASQSVSFAGTSLMHWYQQKPGQQPKLLIYRASNLEAGVPTRFSGSGSRADFTLNIHPVEEDDAATYYCQQSGEYPWTFGGGTKLEIK :: > 8.70
mAb004c (antibody, V domains shown, Human-mouse chimeric) VH: EVQLVESGGGLVQPKGSLKLSCAASGFTFNTYAMHWVRQAPGKGLEWVARIRSKSSNFATYYADSVRDRFTISRDDSQSMLYLQMNNLKTEDTAMYYCVRGYGPSYFSLDYWGQGTSVTVSS VL: DVVMTQTPLSLPVSLGDQASISCRSSQSLVHSNGNTYLHWYLQKPGQSPKLLIYKVSNRFSGVPDRFSGSGSGTDFTLKINRVEAEDLGVYFCSQSTHAIYTFGGGTKLEIK :: > 8.70

For the next question, use this binder.
mAb001c (antibody, V domains shown, Human-mouse chimeric; also called human-mouse chimeric antibody mAb001c) VH: EVRLQQSGPVLVKPGASVKMSCKASGYTFTDYNLHWVKQSHRQSLEWIGYINPNHDGTSYNQKFQGKATLTVDRSSSTAYMEFRSLTSEDSAVYYCARRVRTGTGLDDWGQGTTLTVSS VL: DVLMTQSPLSLPVSLGDQASISCRSSHNIVHTNGNTYLEWYLQKPGQSPKLLIYKVSNRFSGVPDRFSGSGSGTYFTLTISRVEAEDLGVYYCFQGSRFPYTFGGGTKLEIK yielded pEC50 of > 8.70
